Target: α2C Human Adrenergic Receptor (Homo sapiens, UniProt P18825)
Sequence (P18825 1-462): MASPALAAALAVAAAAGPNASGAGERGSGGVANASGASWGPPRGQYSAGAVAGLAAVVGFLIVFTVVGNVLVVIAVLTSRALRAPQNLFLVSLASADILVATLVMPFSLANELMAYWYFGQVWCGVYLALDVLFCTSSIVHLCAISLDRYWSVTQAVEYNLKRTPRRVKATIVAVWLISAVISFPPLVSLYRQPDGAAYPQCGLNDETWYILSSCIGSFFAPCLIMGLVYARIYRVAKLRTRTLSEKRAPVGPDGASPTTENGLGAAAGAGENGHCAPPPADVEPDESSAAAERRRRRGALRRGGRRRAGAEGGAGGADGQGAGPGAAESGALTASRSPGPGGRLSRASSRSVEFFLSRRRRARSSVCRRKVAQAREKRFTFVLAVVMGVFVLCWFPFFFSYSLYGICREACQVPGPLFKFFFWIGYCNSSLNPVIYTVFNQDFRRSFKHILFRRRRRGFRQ
Test: Equilibrium competition binding, [3H] rauwolscine, membranes of transfected LM(tk-) cells
# note: boundary value 100 nM maps to N; Ki below it maps to Y

Example cases with answers are listed next.
Lookup: Lab note: confirm whether the reported Ki for this compound is below 100 nM, equality not counting. compound: Brc1c(NC2=NCCN2)ccc2nc(C3CC3)[nH]c12 [Example 47]
Found: N

Lookup: Try the compound COc1cccc(Cn2cnc3c(Br)c(NC4=NCCN4)ccc32)c1 [Example 37]
Found: N

Lookup: Try the compound Brc1c(NC2=NCCN2)ccc2ncn(Cc3ccccc3)c12 [Example 35]
Found: Y

***
Lookup: Lab note: confirm whether the reported Ki for this compound is below 100 nM, equality not counting. compound: c1ccc(-c2cc(NC3=NCCN3)cc3[nH]cnc23)cc1 [Example 57]
Found: N

Lookup: Try the compound OCCn1cnc2c(Br)c(NC3=NCCN3)ccc21 [Example 38]
Found: N

Lookup: Try the compound Cc1cc(NC2=NCCN2)c(Br)c2[nH]cnc12 [Example 59]
Found: Y

Lookup: Try the compound COc1ccc(Cn2cnc3c(Br)c(NC4=NCCN4)ccc32)cc1 [Example 36]
Found: N

Lookup: Try the compound Cc1nc2ccc(NC3=NCCN3)c(Br)c2[nH]1 [Example 42]
Found: N

Lookup: Try the compound CC(C)Cn1cnc2c(Br)c(NC3=NCCN3)ccc21 [Example 23]
Found: N

Lookup: Try the compound Brc1cc(NC2=NCCN2)c(Br)c2[nH]cnc12 [Example 58]
Found: Y

Lookup: Try the compound Cn1cnc2ccc(NC3=NCCN3)cc21 [Example 11]
Found: N

====

Target: α2C Human Adrenergic Receptor (Homo sapiens)
Assay: Equilibrium competition binding, [3H] rauwolscine, membranes of transfected LM(tk-) cells
result type: pKi
Reminder that pKi means the negative base-10 logarithm of the concentration expressed in mol/L.

Lookup: Please give the measured pKi for this molecule: Cc1cc(NC2=NCCN2)cc2[nH]cnc12
Found: 6.90

Lookup: Try the molecule CCCCc1c(NC2=NCCN2)ccc2nc[nH]c12
Found: 6.92

Lookup: Try the molecule CCCCc1cc(NC2=NCCN2)cc2[nH]cnc12
Found: 6.69

Lookup: Try the molecule Cc1cc2nc[nH]c2cc1NC1=NCCN1
Found: 6.67

Lookup: Try the molecule FC(F)(F)c1nc2ccc(NC3=NCCN3)c(Br)c2[nH]1 [Example 46]
Found: 5.83

Lookup: Try the molecule CC(C)(C)c1nc2ccc(NC3=NCCN3)c(Br)c2[nH]1
Found: 6.53

Lookup: Try the molecule CCc1nc2ccc(NC3=NCCN3)c(Br)c2[nH]1
Found: 6.74

Lookup: Try the molecule Ic1cc(NC2=NCCN2)cc2[nH]cnc12 [Example 54]
Found: 6.70

Lookup: Try the molecule Cn1cnc2cc(NC3=NCCN3)ccc21
Found: 6.81
